Cited source: ChEMBL document CHEMBL1667745

Recorded measurements of MIC, one per entry
Tested on: Streptococcus pneumoniae
method-summary: Antimicrobial activity against erythromycin-resistant Streptococcus pneumoniae A22072 expressing the mef gene by broth microdilution method
Format: functional
Your answer is read as µg/mL, so omit the unit and give the number.

These recorded examples may help you get a feel for the data.
CC[C@H]1OC(=O)[C@H](C)[C@@H](O[C@H]2C[C@@](C)(OC)[C@@H](OC(=O)NCc3ccc(F)cc3)[C@H](C)O2)[C@H](C)[C@@H](O[C@@H]2O[C@H](C)C[C@H](N(C)C)[C@H]2O)[C@](C)(OC)C[C@@H](C)C(=O)[C@H](C)[C@@H](O)[C@]1(C)O = 0.5
CCCNC(=O)CCCCCNC(=O)O[C@H]1[C@H](C)O[C@@H](O[C@H]2[C@H](C)[C@@H](O[C@@H]3O[C@H](C)C[C@H](N(C)C)[C@H]3O)[C@](C)(OC)C[C@@H](C)C(=O)[C@H](C)[C@@H](O)[C@](C)(O)[C@@H](CC)OC(=O)[C@@H]2C)C[C@@]1(C)OC = 4
CCCCCNC(=O)O[C@H]1[C@H](C)O[C@@H](O[C@H]2[C@H](C)[C@@H](O[C@@H]3O[C@H](C)C[C@H](N(C)C)[C@H]3O)[C@](C)(OC)C[C@@H](C)C(=O)[C@H](C)[C@@H](O)[C@](C)(O)[C@@H](CC)OC(=O)[C@@H]2C)C[C@@]1(C)OC = 0.25
CC[C@H]1OC(=O)[C@H](C)[C@@H](O[C@H]2C[C@@](C)(OC)[C@@H](OC(=O)NCCCC(=O)NCc3ccc(OC)cc3)[C@H](C)O2)[C@H](C)[C@@H](O[C@@H]2O[C@H](C)C[C@H](N(C)C)[C@H]2O)[C@](C)(OC)C[C@@H](C)C(=O)[C@H](C)[C@@H](O)[C@]1(C)O = 0.25
CC[C@H]1OC(=O)[C@H](C)[C@@H](O[C@H]2C[C@@](C)(OC)[C@@H](OC(=O)NCCc3ccccc3Cl)[C@H](C)O2)[C@H](C)[C@@H](O[C@@H]2O[C@H](C)C[C@H](N(C)C)[C@H]2O)[C@](C)(OC)C[C@@H](C)C(=O)[C@H](C)[C@@H](O)[C@]1(C)O = 0.5
CC[C@H]1OC(=O)[C@H](C)[C@@H](O[C@H]2C[C@@](C)(OC)[C@@H](OC(=O)NCCc3ccccc3)[C@H](C)O2)[C@H](C)[C@@H](O[C@@H]2O[C@H](C)C[C@H](N(C)C)[C@H]2O)[C@](C)(OC)C[C@@H](C)C(=O)[C@H](C)[C@@H](O)[C@]1(C)O = 1
CC[C@H]1OC(=O)[C@H](C)[C@@H](O[C@H]2C[C@@](C)(OC)[C@@H](OC(=O)NCCCCCC(=O)NCc3ccccc3)[C@H](C)O2)[C@H](C)[C@@H](O[C@@H]2O[C@H](C)C[C@H](N(C)C)[C@H]2O)[C@](C)(OC)C[C@@H](C)C(=O)[C@H](C)[C@@H](O)[C@]1(C)O = 2

Proceeding to the next compound to report its MIC.
Dear colleague, I am looking for the recorded MIC of the following compound: CC[C@H]1OC(=O)[C@H](C)[C@@H](O[C@H]2C[C@@](C)(OC)[C@@H](OC(=O)NCCc3ccc4c(c3)OCO4)[C@H](C)O2)[C@H](C)[C@@H](O[C@@H]2O[C@H](C)C[C@H](N(C)C)[C@H]2O)[C@](C)(OC)C[C@@H](C)C(=O)[C@H](C)[C@@H](O)[C@]1(C)O
0.25
